Molecular target: PIK3C3 lipid kinase (Homo sapiens, UniProt Q8NEB9)
Sequence (Q8NEB9 whole entry): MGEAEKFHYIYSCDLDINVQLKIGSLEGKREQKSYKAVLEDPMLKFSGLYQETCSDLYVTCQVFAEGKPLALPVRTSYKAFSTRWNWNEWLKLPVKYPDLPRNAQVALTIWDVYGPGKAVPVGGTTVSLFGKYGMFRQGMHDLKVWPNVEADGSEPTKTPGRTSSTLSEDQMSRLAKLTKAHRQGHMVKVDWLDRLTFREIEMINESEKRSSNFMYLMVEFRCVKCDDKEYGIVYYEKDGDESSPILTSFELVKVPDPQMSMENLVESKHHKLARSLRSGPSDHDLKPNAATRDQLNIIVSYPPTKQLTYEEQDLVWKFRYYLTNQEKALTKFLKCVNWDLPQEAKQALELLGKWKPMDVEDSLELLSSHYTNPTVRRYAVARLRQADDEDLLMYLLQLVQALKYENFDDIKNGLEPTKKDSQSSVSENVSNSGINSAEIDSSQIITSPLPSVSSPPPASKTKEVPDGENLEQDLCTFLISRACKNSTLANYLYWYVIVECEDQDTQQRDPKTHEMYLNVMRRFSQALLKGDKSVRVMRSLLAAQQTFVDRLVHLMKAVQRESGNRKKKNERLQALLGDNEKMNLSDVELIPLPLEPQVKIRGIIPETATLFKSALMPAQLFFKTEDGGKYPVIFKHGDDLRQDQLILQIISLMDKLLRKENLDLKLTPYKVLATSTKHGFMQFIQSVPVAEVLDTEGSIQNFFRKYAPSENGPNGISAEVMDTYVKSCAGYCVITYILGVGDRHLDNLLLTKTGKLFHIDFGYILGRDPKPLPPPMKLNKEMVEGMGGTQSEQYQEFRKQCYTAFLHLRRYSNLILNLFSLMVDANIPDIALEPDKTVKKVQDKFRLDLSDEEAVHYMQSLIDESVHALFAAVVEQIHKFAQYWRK
Experiment: Biochemical Vps34 lipid kinase assay (ADP-Glo)
Settings: serial dilution 10 μM to 0.3 nM; 20 μM ATP; pIC50 = -log IC50 (M)

{"molecule": "O=C1CN2CCN(Cc3cccc(c3)Nc3cc(ccn3)-c3cnc(nc3)N3CCCC3CCN1)C(CO)C2 (stereo not shown) [Compound 46]", "IC50, M": "2.34e-06"}
{"molecule": "O=C1NCCCNc2ncc(cn2)-c2ccnc(c2)Nc2cccc(c2)CN2CCN(CC2)C12CC2 [Compound 107]", "IC50, M": "3.31e-07"}
{"molecule": "O=C1CN2CCN(CC2)Cc2cccc(c2)Nc2cc(ccn2)-c2ccc(nc2)N2CCCC2CCN1 (single isomer, unassigned) [Compound 143]", "IC50, M": "2.14e-06"}
{"molecule": "O=C1NCCCNc2ncc(cn2)-c2ccnc(c2)Nc2cccc(c2)CN2CCN(CC2)C12COC2 [Compound 10]", "IC50, M": "4.57e-07"}
{"molecule": "CC1CN2CCN1Cc1cccc(c1)Nc1cc(ccn1)-c1cnc(nc1)N1CCCC1CCNC(=O)C2 (stereo not shown) [Compound 47]", "IC50, M": "9.12e-06"}
{"molecule": "CN1CCCN(C)c2ccc(cn2)-c2ccnc(c2)Nc2cccc(c2)CN2CCN(CC2)CC1=O [Compound 68]", "IC50, M": "4.68e-06"}
{"molecule": "O=C1CN2CC3CCC(C2)N3Cc2cccc(c2)Nc2cc(ccn2)-c2cnc(nc2)NCCCN1 [Compound 41]", "IC50, M": "7.41e-07"}
